In this section, each of the compounds is paired with its reported Cmax.
- measurement_description: Pharmacokinetic profile, plasma concentrations by LC/MS/MS
- Format: in vivo, female Crl: CD1 mice
- conditions_used: female, Crl: CD1, mouse; ip, 30 mg/kg, mice plasma; read-out: observed Cmax
recorded_endpoint: Cmax (ng/mL)

>>> print(df.to_string())
                           structure_string  recorded_endpoint  value_unit  measured
0  CC(C)=CCC/C(C)=C/CC/C(C)=C/CN1C(=O)c2cccc(O)c2Nc2c(O)cc(O)cc21               Cmax       ng/mL      2250
1  CC(C)=CCC/C(C)=C/CC/C(C)=C/CN1C(=O)c2cccc(O)c2N(C)c2c(O)cc(O)cc21               Cmax       ng/mL      5800

// provenance: patent US20060079512A1
